biological target: TJP1_2, Q07157; assay: holdup assay; parameters: key: below the threshold = too weak to quantify, mostly under pKd 3.1 to 4; conditions: plain residues with an end cap or a label only (N-terminal biotin on a linker: ado-ado)
Sequence (Q07157 181-274): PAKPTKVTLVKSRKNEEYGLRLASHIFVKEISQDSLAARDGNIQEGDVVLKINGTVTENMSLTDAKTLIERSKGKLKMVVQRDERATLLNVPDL
observed_property: pKd

Examples from the recorded data:
binder="TKEIPNCTSV [SORCS3, Q9UPU3]" observed_property=pKd observed_value="below the threshold"
binder="ELKAEDEVQI [DCHS2, Q6V1P9]" observed_property=pKd observed_value=3.87
binder="GNDPDRGTSI [GRID2, O43424]" observed_property=pKd observed_value="below the threshold"
binder="PSVYSRSQYV [CLDN8, P56748]" observed_property=pKd observed_value="below the threshold"
binder="NKSEPFLTWL [WWTR1, Q9GZV5]" observed_property=pKd observed_value="below the threshold"

For each of the items listed, what is its pKd?
1. THREVKFTSL [CD46, P15529]
2. GSQSQVETEA [FKBP4, Q02790]
3. KLQNPNQSVV [TYRP1, P17643]
4. AHGSTRDQSI [KCNB1, Q14721]
5. NISARRFTLC [FAM167B, Q9BTA0]
6. QLKSGRDSTV [TMEM178A, Q8NBL3]

**A:**
["below the threshold", "below the threshold", "below the threshold", "below the threshold", "below the threshold", "below the threshold"]
